Assay: Human pregnane X receptor (PXR) small molecule agonists, qHTS cell viability counter screen (AID 1346977); also: nearly all actives have a fitted effect of over 50% in size
Details: PXR-Luc HepG2 viability, CellTiter-Fluor, 24 h; series mostly up to 92.4 µM
Records with an inconclusive call do not appear. The source made the active and inactive calls. Calls follow the shape of the dose curve; as a rule, active = well fitted cell-killing curve with a large enough effect in the repeat runs; inconclusive = weak or mixed curves, or effect the other way; inactive = flat fitted curve, though single readings scatter.
Labels: active, inactive

compound: NC(CO)(CO)CO
groupLabel: inactive

compound: NS(=O)(=O)c1cc2c(cc1Cl)NCNS2(=O)=O
groupLabel: inactive

compound: CN1[C@@H]2CC(OC(=O)[C@H](CO)c3ccccc3)C[C@H]1[C@@H]1O[C@@H]12 (some centres not stated)
groupLabel: inactive

compound: CN(C)CCOC(c1ccccc1)c1ccccc1
groupLabel: inactive

compound: CC/C(=C(\c1ccccc1)c1ccc(OCCN(C)C)cc1)c1ccccc1
groupLabel: active

compound: CCCCC1(COC(=O)CCC(=O)O)C(=O)N(c2ccccc2)N(c2ccccc2)C1=O
groupLabel: inactive

compound: CC(C)NCC(O)c1ccc(O)c(O)c1 (configuration not stated)
groupLabel: inactive

compound: COc1ccc(CN(CCN(C)C)c2ccccn2)cc1
groupLabel: inactive

compound: O=C1O[C@H]([C@@H](O)CO)C(O)=C1O
groupLabel: inactive

compound: Cc1cccc(C)c1
groupLabel: inactive

compound: CS(=O)(=O)OCCCCOS(C)(=O)=O
groupLabel: inactive

compound: Cc1ccc(S(=O)(=O)O)cc1
groupLabel: inactive

compound: CCCCCCCC(=O)OCC(COC(=O)CCCCCCC)OC(=O)CCCCCCC
groupLabel: inactive

compound: CC(=O)C(=O)O
groupLabel: inactive

compound: CCCCNC(=O)NS(=O)(=O)c1ccc(C)cc1
groupLabel: inactive

compound: C1=CC2C3C=CC(C3)C2C1 (configuration not stated)
groupLabel: inactive

compound: O=C(O)c1ccccc1
groupLabel: inactive

compound: O=C(Nc1ncc([N+](=O)[O-])s1)c1cccs1
groupLabel: active

compound: C1CCC(C(CC2CCCCN2)C2CCCCC2)CC1 (configuration not stated)
groupLabel: active

compound: Nc1ccc([N+](=O)[O-])cc1O
groupLabel: active

compound: CCN(Cc1c(F)cccc1Cl)c1c([N+](=O)[O-])cc(C(F)(F)F)cc1[N+](=O)[O-]
groupLabel: inactive

compound: Cc1cn([C@H]2C=C[C@@H](CO)O2)c(=O)[nH]c1=O
groupLabel: inactive

* * *

Experiment: qHTS assay to identify small molecule agonists of the RXR signaling pathway - cell viability counter screen (AID 1159529); also: nearly all actives have a fitted effect of over 50% in size
Details: RXR-alpha-bla HEK293T viability, CellTiter-Glo, 16 h; series mostly up to 76.8 µM
Results filed as inconclusive are left out. Activity calls are given as the source filed them. Calls come from the whole dose curve; as a rule, active = well fitted cell-killing curve with a large enough effect in the repeat runs; inconclusive = weak or mixed curves, or effect the other way; inactive = no such curve, though single readings can be large or run the other way.
Labels: active, inactive

compound: Oc1ccccc1
groupLabel: inactive

compound: CN(C)C(=O)Nc1ccc(Cl)c(Cl)c1
groupLabel: inactive

compound: Cc1cccc(C)c1
groupLabel: inactive

compound: Nc1ccc(O)c([N+](=O)[O-])c1
groupLabel: inactive

compound: C1=CC2C3C=CC(C3)C2C1 (stereo unspecified)
groupLabel: inactive

compound: CCN(CC)C(=O)c1cccc(C)c1
groupLabel: inactive

compound: CC(C)NCC(O)c1ccc(O)c(O)c1 (stereo unspecified)
groupLabel: inactive

compound: CCCc1cc(=O)[nH]c(=S)[nH]1
groupLabel: inactive

compound: O=C1NC(=O)C(c2ccccc2)(c2ccccc2)N1
groupLabel: inactive

compound: CC(C)c1c(C(=O)Nc2ccccc2)c(-c2ccccc2)c(-c2ccc(F)cc2)n1CC[C@@H](O)C[C@@H](O)CC(=O)O
groupLabel: inactive

compound: Cc1c(C(=O)O)c(O)cc2c1C(=O)c1c(O)c([C@@H]3O[C@H](CO)[C@@H](O)[C@H](O)[C@H]3O)c(O)c(O)c1C2=O
groupLabel: inactive

compound: O=C(Nc1ncc([N+](=O)[O-])s1)c1cccs1
groupLabel: active

compound: Nc1ccc(S(N)(=O)=O)cc1
groupLabel: inactive

compound: Nc1c(N=Nc2ccc(-c3ccc(N=Nc4cc(S(=O)(=O)O)c5ccccc5c4N)cc3)cc2)cc(S(=O)(=O)O)c2ccccc12
groupLabel: inactive

compound: O=c1[nH]cnc2c1ncn2[C@H]1CC[C@@H](CO)O1
groupLabel: inactive

compound: NC(CO)(CO)CO
groupLabel: inactive

compound: CCCCC1(COC(=O)CCC(=O)O)C(=O)N(c2ccccc2)N(c2ccccc2)C1=O
groupLabel: inactive

compound: C1CCC(C(CC2CCCCN2)C2CCCCC2)CC1 (stereo unspecified)
groupLabel: active

compound: Cc1ccc(S(=O)(=O)O)cc1
groupLabel: inactive

compound: NS(=O)(=O)c1cc2c(cc1Cl)NCNS2(=O)=O
groupLabel: inactive

compound: CC(=O)CCC(=O)O
groupLabel: inactive

compound: CS(=O)(=O)OCCCCOS(C)(=O)=O
groupLabel: inactive

compound: COc1ccc(C(Cl)=C(c2ccc(OC)cc2)c2ccc(OC)cc2)cc1
groupLabel: inactive

compound: CC1(C)S[C@@H]2[C@H](NC(=O)[C@H](N)c3ccccc3)C(=O)N2[C@H]1C(=O)O
groupLabel: inactive

compound: O=C1O[C@H]([C@@H](O)CO)C(O)=C1O
groupLabel: inactive

compound: NC1CCCCC1
groupLabel: inactive

* * *

Experiment: qHTS assay for small molecule disruptors of the mitochondrial membrane potential (AID 720635); also: potency is read from the fitted curve at half-maximal effect
Conditions: HepG2 mitochondrial membrane potential, Mito-MPS dye ratio; series mostly up to 83.2 µM
Records with an inconclusive call do not appear. The source made the active and inactive calls. Calls follow the shape of the dose curve; as a rule, active = well fitted inhibition curve with a large enough effect in the signal ratio in the repeat runs; inconclusive = weak or mixed curves, or effect the other way; inactive = flat fitted curve, though single readings scatter; the % refers to the signal ratio.

compound: NS(=O)(=O)c1cc2c(cc1Cl)NCNS2(=O)=O
Potency: inactive

compound: Cc1ccc(S(=O)(=O)O)cc1
Potency: inactive

compound: Cc1cn([C@H]2C=C[C@@H](CO)O2)c(=O)[nH]c1=O
Potency: inactive

compound: C1CCC(C(CC2CCCCN2)C2CCCCC2)CC1 (stereo unspecified)
Potency: 5.96 µM (active)

compound: O=C1O[C@H]([C@@H](O)CO)C(O)=C1O
Potency: inactive

compound: C/C=C/C=C/C(=O)O
Potency: inactive

compound: O=C(Nc1ncc([N+](=O)[O-])s1)c1cccs1
Potency: 0.668 µM (active)

compound: CC(C)NCC(O)c1ccc(O)c(O)c1 (stereo unspecified)
Potency: inactive

compound: CC12CCC(CC1)C(C)(C)O2
Potency: inactive

compound: COc1ccc2cc(S(=O)(=O)N[C@H](CC(=O)N[C@H](Cc3ccc(CN4[C@H](C)CCC[C@@H]4C)cc3)C(=O)N(C)C(C)C)c3ccc4c(c3)OCO4)ccc2c1
Potency: 10.3 µM (active)

compound: OC[C@H]1O[C@H](O[C@]2(CCl)O[C@H](CCl)[C@@H](O)[C@@H]2O)[C@H](O)[C@@H](O)[C@H]1Cl
Potency: inactive

* * *

Experiment: qHTS assay to identify small molecule antagonists of the androgen receptor (AR) signaling pathway using the MDA cell line in the presence of 0.5 nM R1881 - cell viability counter screen (AID 1259242); also: nearly all actives have a fitted effect of over 45% in size
Details: MDA-kb2 viability, CellTiter-Fluor protease fluorescence, 16 h; series mostly up to 92.4 µM
Records with an inconclusive call do not appear. The source made the active and inactive calls. The call rests on the fitted dose curve; in most records, active means well fitted cell-killing curve with a large enough effect in the repeat runs; inconclusive means weak or mixed curves, or effect the other way; inactive means flat fitted curve, though single readings scatter.
Labels: 1 for active, -1 for inactive

compound: NC(=O)c1cccnc1
groupLabel: -1
--
compound: Oc1ccccc1
groupLabel: -1
--
compound: C[C@](N)(Cc1ccc(O)c(O)c1)C(=O)O
groupLabel: -1
--
compound: OC[C@H]1O[C@H](O[C@]2(CCl)O[C@H](CCl)[C@@H](O)[C@@H]2O)[C@H](O)[C@@H](O)[C@H]1Cl
groupLabel: -1
--
compound: CC(C)C(=O)Nc1ccc([N+](=O)[O-])c(C(F)(F)F)c1
groupLabel: -1
--
compound: CC(C)c1c(C(=O)Nc2ccccc2)c(-c2ccccc2)c(-c2ccc(F)cc2)n1CC[C@@H](O)C[C@@H](O)CC(=O)O
groupLabel: -1
--
compound: Cc1cc(C)nc(NS(=O)(=O)c2ccc(N)cc2)n1
groupLabel: -1
--
compound: C=C(C)C(=O)OCC(C)O (stereo unspecified)
groupLabel: -1
--
compound: CC(=O)Nc1c(I)c(NC(C)=O)c(I)c(C(=O)O)c1I
groupLabel: -1
--
compound: CC/C(=C(\c1ccccc1)c1ccc(OCCN(C)C)cc1)c1ccccc1
groupLabel: 1
--
compound: Nc1c(N=Nc2ccc(-c3ccc(N=Nc4cc(S(=O)(=O)O)c5ccccc5c4N)cc3)cc2)cc(S(=O)(=O)O)c2ccccc12
groupLabel: 1
--
compound: CCCC[P+](CCCC)(CCCC)CCCC
groupLabel: -1
--
compound: CC1(C)S[C@@H]2[C@H](NC(=O)[C@H](N)c3ccccc3)C(=O)N2[C@H]1C(=O)O
groupLabel: -1
--
compound: CC(O)(P(=O)(O)O)P(=O)(O)O
groupLabel: -1
--
compound: CCOc1ccc(NC(C)=O)cc1
groupLabel: -1
--
compound: CN(N=O)C(=O)N[C@@H]1[C@@H](O)[C@H](O)[C@@H](CO)O[C@@H]1O
groupLabel: -1
--
compound: Cc1ccc(S(=O)(=O)O)cc1
groupLabel: -1
--
compound: CCc1nc(N)nc(N)c1-c1ccc(Cl)cc1
groupLabel: -1
--
compound: C1=CC2C3C=CC(C3)C2C1 (stereo unspecified)
groupLabel: -1
--
compound: CC(=O)CC(c1ccccc1)c1c(O)c2ccccc2oc1=O (stereo unspecified)
groupLabel: -1
--
compound: CCCCC1(COC(=O)CCC(=O)O)C(=O)N(c2ccccc2)N(c2ccccc2)C1=O
groupLabel: -1
